Experiment: Cytotoxicity against MDCK cells by MTT assay
Format: cell-based, Canis lupus familiaris
Details: dog
RESULT_TYPE: CC50 at 336 h (µM)
Numbers only here, please. The scale is µM.

Form field: reported CC50 at 336 h of CC12C=CC3(CN(c4ccc(Br)cc4)C(=O)C3C1C(=O)N/N=C1\C(C)(C)[C@H]3CC[C@]1(C)C3)O2 (mixture of isomers)
80

Can you share its CC50 at 336 h? I mean this compound: CC12CCC3(CN(c4ccccc4)C(=O)C3C1C(=O)N/N=C1\C[C@H]3CC[C@]1(C)C3(C)C)O2 (mixture of isomers)
130

Consider the compound CC12C=CC3(CN(c4ccc(Br)cc4)C(=O)C3C1C(=O)N/N=C1\C[C@H]3CC[C@]1(C)C3(C)C)O2 (mixture of isomers) and give its measured CC50 at 336 h.
78
